Reference for the values: the supplement of paper PMC11451515

System: P12-Ichikawa
experiment notes: cell viability relative to DMSO control; higher = less cytotoxic
condition: RPMI 5 mM glucose + 10% FBS; 48 h; 15.4 µM
measured property: cell viability (%)
A number alone suffices; assume %.

Worked examples, 3 compounds total:
CC(C)N(C[C@H]1O[C@@H](n2cnc3c(N)ncnc32)[C@H](O)[C@@H]1O)[C@H]1C[C@@H](CCc2nc3cc(C(C)(C)C)ccc3[nH]2)C1	92.7
OC1=CC2=C(C=C1)C(=O)\C(=C(O2)\C3=CC(=C(O)C=C3)O)O	88.1
C[C@@H]1CN(Cc2ccc(F)cc2)[C@@H](C)CN1C(=O)c1cc2c(C(=O)C(=O)N(C)C)cn(C)c2cc1Cl	117

Turning now to a further compound:
Tell me the measured cell viability of `O=C(CC12CC3CC(CC(C3)C1)C2)Nc1cccc2nc(NCCNCCO)ccc12` , please. 94.1

* * *

Test system: P12-Ichikawa
experiment notes: cell viability relative to DMSO control; higher = less cytotoxic
condition: RPMI 5 mM glucose + 10% FBS; 48 h; 0.0632 µM
Readings of cell viability for the listed compounds
Response body: numeric value in %, unit text excluded.

Known results for compounds:
O=C1CCC[C@@H]2[C@H]3CCCN4CCC[C@@H](CN12)[C@@H]34	88.9
CCN(CC)CCOc1ccc(Cc2ccccc2)cc1	99.4
N[S+](=O)([O-])c1cc2c(cc1Cl)NC(C(Cl)Cl)N[S+]2(=O)[O-] (stereo not given)	126
C[N]1C=C(C2=CC=CC=C12)\C3=C(\C(=O)NC3=O)C4=C[N](C5CCN(CC5)CC6=NC=CC=C6)C7=C4C=CC=C7	118
C[C@H](CCC(=O)O)[C@H]1CCC2C3C[C@H](O)[C@@H]4C[C@H](O)CC[C@]4(C)C3CC[C@@]21C (stereo not given in full)	117
CCN1\C=C(\C(O)=O)C(=O)C2=C1N=C(N3CCNCC3)C(=C2)F	80.7
COc1ccc(C(=O)c2c(C)n(CCN3CCOCC3)c3ccccc23)cc1	97.5
CCC[S+](=O)([O-])Nc1ccc(F)c(C(=O)c2c[nH]c3ncc(Cl)cc23)c1F	114
O=C(Nc1nnc(-c2ccco2)o1)c1cc(-c2ccccc2)nc2ccccc12	116
O=C(CCCCCCC(=O)Nc1cccnc1)NO	97.5

Quick one: cell viability for `CN(C)C1=CC(=CC=C1)C\2=C\3C(=O)N(NC3=C/C(=O)N2C)C4=CC=CC=C4Cl` ? 117

For the compound shown here, `CC(C)=CCC/C(C)=C/CC/C(C)=C/CC/C(C)=C/CC/C(C)=C/CC/C(C)=C/CC/C(C)=C/CC/C(C)=C/CC/C(C)=C/CO` , give the reported cell viability. 108

Query: cell viability; subject: `CN(C)c1ccc2nc3ccc(N(C)C)cc3[s+]c2c1` 110

Which cell viability value belongs to `CC[N+](CC)(CC)CCOc1cccc(OCC[N+](CC)(CC)CC)c1OCC[N+](CC)(CC)CC` ? 114

// query cell viability value for entry COc1ccc(C(CN(C)C)C2(O)CCCCC2)cc1 (stereo not given) 120

Quick one: cell viability of `CC(=O)N[C@@H]1[C@@H](NC(N)=N)\C=C(/O[C@H]1[C@H](O)[C@H](O)CO)C(O)=O` ? 123

What does the data say about its cell viability? Entry: C=C1C(=O)OC(CCCCCCCC)C1C(=O)O (stereo not given) 129

Entry under review: CCOC(=O)C(C#N)C\1C2=CC(=CC=C2O\C(=C1C(=O)OCC)N)Br (stereo not given) . Reported cell viability? 106

Recorded cell viability for `Cc1cn([C@H]2C=C[C@@H](CO)O2)c(=O)[nH]c1=O` , please? 105

Consider the compound `CCN1C[C@H](C)[N]2C(=C(O)C3=C2\C(=N/N(CC4=CC=C(F)C(=C4)Cl)C3=O)C(=O)NC)C1=O` and give its measured cell viability. 113

Report cell viability for `Cc1ccc([N+](=O)[O-])cc1[S+](=O)([O-])N(C)/N=C/c1cnc2ccc(Br)cn12` please. 95.6

Fill in: cell viability of CC\12CCC(=O)\C=C1CCC3C2CCC4(C)C3CCC4(O)C#C (stereo not given) is ___ 96.8

For the compound `CCOc1cc2ncc(C#N)c(Nc3ccc(F)c(Cl)c3)c2cc1NC(=O)/C=C/CN(C)C` , what cell viability is on record? 121

// query cell viability value for entry `CC1=C(/C=C/C(C)=C/C=C/C(C)=C\C(=O)O)C(C)(C)CCC1` 85.5

Can you share its cell viability? I mean this compound: `C[C@@H]1CCN(C(=O)CC#N)C[C@@H]1N(C)c1ncnc2[nH]ccc12` 95.5

* * *

Test system: NOMO1
experiment notes: AUC of viability dose-response curve (% viability x log10 dose units); higher = less sensitive
condition: HPLM + 10% dialyzed FBS; 48 h
measured property: AUC of viability dose-response curve
Provide a numeric answer; units are not to be included.

Completed entries (count: 2):
CCc1cc(C(N)=S)ccn1	459
C[C@@H](NCCCc1cccc(C(F)(F)F)c1)c1cccc2ccccc12	455

Could you share which AUC of viability dose-response curve value was measured for `N#C/C(=C\c1ccc(O)c(O)c1)C(=O)NCc1ccccc1` ? 446

Need AUC of viability dose-response curve, item `CN(C)c1ccc2nc3ccc(N(C)C)cc3[s+]c2c1` 401

Recorded AUC of viability dose-response curve of `ClC1=CC=C2N/C3=N/C(=O)CN3CC2=C1Cl` , please. 456

* * *

Tested on: NOMO1
experiment notes: cell viability relative to DMSO control; higher = less cytotoxic
condition: RPMI 5 mM glucose + 10% FBS; 48 h; 0.000781 µM
cell viability values by entry
Give the value in % but do not write % after it.

Solved entries:
COc1cc2ncn(-c3cc(OCc4ccccc4[S+](C)(=O)[O-])c(C#N)s3)c2cc1OC	90.9
COC(=O)Nc1nc2cc(C(=O)c3ccc(F)cc3)ccc2[nH]1	107
CCN1C[C@H](C)[N]2C(=C(O)C3=C2\C(=N/N(CC4=CC=C(F)C(=C4)Cl)C3=O)C(=O)NC)C1=O	107
CCN1\C=C(\C(O)=O)C(=O)C2=C1N=C(N3CCNCC3)C(=C2)F	78
CC\12CCC(=O)\C=C1CCC3C2CCC4(C)C3CCC4(O)C#C (stereo not given)	89.9

So what's the measured cell viability for this one? `N\C1=N\C2=C(N=C[N]2COCCO)C(=O)N1` 106

Need cell viability, item `Cc1cc(OCCC[S+](C)(=O)[O-])cc(C)c1-c1cccc(COc2ccc3c(c2)OC[C@H]3CC(=O)O)c1` 96.9

What measured cell viability goes with `Cc1ccc([N+](=O)[O-])cc1[S+](=O)([O-])N(C)/N=C/c1cnc2ccc(Br)cn12` ? 121

// lookup cell viability for `C/C(=N\NC(=S)N1CCC1)c1ccccn1` 107

Tell me the measured cell viability of `C[C@H]1C[C@H]2[C@@H]3CC[C@](O)(C(=O)CO)[C@@]3(C)C[C@H](O)[C@@H]2[C@@]\4(C)/C=C\C(=O)\C=C14` , please. 81.4

If you can, please state the reported cell viability value of `CC(=O)N[C@@H]1[C@@H](NC(N)=N)\C=C(/O[C@H]1[C@H](O)[C@H](O)CO)C(O)=O` . 102

Param item = `O=C/1NC(=O)C(=C1C2=CN=C3C=CC=C[N]23)/C4=C[N]5CCN(CC6=C5C4=CC=C6)C(=O)N7CCOCC7` ; retrieve measured cell viability. 109

Returns the measured cell viability for the input compound. Input: `COc1cccc2c1C(=O)c1c(O)c3c(c(O)c1C2=O)C[C@@](O)(C(=O)CO)C[C@@H]3O[C@H]1C[C@H](N)[C@H](O[C@H]2CCCCO2)[C@H](C)O1` 120

// lookup cell viability for `NC(=O)Nc1sc(-c2ccc(F)cc2)cc1C(N)=O` 117

// query cell viability value for entry `NC[C@@H]1O[C@H](O[C@H]2[C@@H](O)[C@H](O[C@@H]3[C@@H](O)[C@H](N)C[C@H](N)[C@H]3O[C@H]3O[C@H](CN)[C@@H](O)[C@H](O)[C@H]3N)O[C@@H]2CO)[C@H](N)[C@@H](O)[C@@H]1O.O=S(=O)(O)O.O=S(=O)(O)O.O=S(=O)(O)O` 95.3

// lookup cell viability for `[O-]C(=O)C/1=N/C(=O)NC(=O)N1` 93.5

* * *

Tested on: SEM cells
experiment notes: cell viability relative to DMSO control; higher = less cytotoxic
condition: RPMI 5 mM glucose + 10% FBS; 48 h; 0.19 µM
measured property: cell viability (%)
Please respond with the number in % and leave the unit unwritten.

Worked set:
CC[C@@H]1[C@@H](C)O[C@@](O)([C@@H](C)[C@H](O)[C@H](C)[C@H]2OC(=O)/C=C/C=C/[C@H](C)[C@@H]([C@@H](C)[C@@H](O)[C@H](C)[C@@]3(O)C[C@@H](O[C@H]4C[C@H](O)[C@H](O)[C@H](C)O4)[C@H](CC)[C@@H](C)O3)OC(=O)/C=C/C=C/[C@@H]2C)C[C@H]1O[C@H]1C[C@H](O)[C@H](O)[C@H](C)O1	114
CN1CCN(c2c(F)cc3c(=O)c(C(=O)O)cn(CCF)c3c2F)CC1	104
O=C(Nc1c[nH]nc1-c1nc2cc(CN3CCOCC3)ccc2[nH]1)NC1CC1	22.5

Reported cell viability for `Cc1c(-c2cccc3c(CCCOc4cccc5ccccc45)c(C(=O)O)n(Cc4cccnc4)c23)c(COc2ccc(N3CCN([S+](=O)([O-])N(C)C)CC3)cc2)nn1C` : what is it? 128
